Data provenance is patent US11352350B2.

The molecules listed here are annotated with their DC50.
biological target: IRAK4 (Homo sapiens (Human)); experiment: IRAK4 MSD degradation in OCI-LY10; assay type: cell-based; conditions: OCI-LY10, 4 hrs; read-out: IRAK4 MSD degradation in OCI-LY10 at 4 hrs: DC50

# Molecule, DC50
records = [
    ("Cn1c(=O)n(C2CCC(=O)NC2=O)c2cccc(CC3CCN(c4ccc(CN5CCC(n6cc(NC(=O)c7cnn8ccc(N9C[C@H]%10C[C@@H]9CO%10)nc78)c(C(F)F)n6)CC5)cc4)CC3)c21 (stereo partly shown)", "10 to 100 nM"),
    ("Cn1c(=O)n(C2CCC(=O)NC2=O)c2cccc(CCCC3CCN(C[C@H]4CC[C@H](n5cc(NC(=O)c6cnn7ccc(N8CCCOCC8)nc67)c(C(F)F)n5)CC4)CC3)c21 (stereo partly shown)", "< 10 nM"),
    ("O=C1CCC(N2C(=O)c3cccc(NCCCCC[C@@H]4CN(C[C@H]5CC[C@H](n6cc(NC(=O)c7cnn8ccc(N9C[C@H]%10C[C@@H]9CO%10)nc78)c(C(F)F)n6)CC5)CCO4)c3C2=O)C(=O)N1 (stereo partly shown)", "100 to 1000 nM"),
    ("Cn1c(=O)n(C2CCC(=O)NC2=O)c2cccc(CN3CC4(CCN(Cc5ccc(-n6cc(NC(=O)c7cnn8ccc(N9C[C@H]%10C[C@@H]9CO%10)nc78)c(C(F)F)n6)cc5)CC4)C3)c21 (stereo partly shown)", "10 to 100 nM"),
    ("Cn1c(=O)n(C2CCC(=O)NC2=O)c2cccc(CN3CCC(OC4CCN(C[C@H]5CC[C@H](n6cc(NC(=O)c7cnn8ccc(N9C[C@H]%10C[C@@H]9CO%10)nc78)c(C(F)F)n6)CC5)CC4)CC3)c21 (stereo partly shown)", "< 10 nM"),
    ("Cn1c(=O)n(C2CCC(=O)NC2=O)c2cccc(CCC3CCN(C[C@H]4CC[C@H](n5cc(NC(=O)c6cnn7ccc(N8C[C@H]9C[C@@H]8CO9)nc67)c(C(F)F)n5)CC4)CC3)c21 (stereo partly shown)", "10 to 100 nM"),
]

API: the following record is the query input.
# DC50 (molecule: O=C1CCC(n2c3cccc(CCCN4CC5(CCN(C(=O)[C@H]6CC[C@H](n7cc(NC(=O)c8cnn9ccc(N%10C[C@H]%11C[C@@H]%10CO%11)nc89)c(C(F)F)n7)CC6)CC5)C4)c3c3cccnc32)C(=O)N1 (stereo partly shown) ) is 10 to 100 nM

---

target: IRAK4 (Homo sapiens (Human), UniProt Q9NWZ3); experiment: IRAK4 MSD degradation in OCI-LY10; type: cell-based; conditions: OCI-LY10, 4 hrs, MSD; read-out: IRAK4 MSD degradation in OCI-LY10 at 4 hrs: Average external-Abs DC50
Sequence (Q9NWZ3 whole entry): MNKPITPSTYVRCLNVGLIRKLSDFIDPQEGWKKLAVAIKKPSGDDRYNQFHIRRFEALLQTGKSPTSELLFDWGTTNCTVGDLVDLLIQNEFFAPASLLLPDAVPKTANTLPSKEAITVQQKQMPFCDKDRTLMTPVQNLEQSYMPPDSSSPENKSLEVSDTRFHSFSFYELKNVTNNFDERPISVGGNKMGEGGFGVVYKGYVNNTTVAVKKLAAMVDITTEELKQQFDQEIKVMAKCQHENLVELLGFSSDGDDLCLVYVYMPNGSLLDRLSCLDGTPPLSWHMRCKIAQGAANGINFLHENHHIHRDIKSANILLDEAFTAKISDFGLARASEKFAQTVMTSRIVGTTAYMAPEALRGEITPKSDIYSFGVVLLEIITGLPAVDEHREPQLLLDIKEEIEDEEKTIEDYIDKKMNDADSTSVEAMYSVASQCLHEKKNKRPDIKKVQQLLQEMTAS
Quantity Kind: DC50

Here's what some known entries look like.
# Compound, DC50
rows = [
    ("CN(C[C@H]1CC[C@H](n2cc(NC(=O)c3cnn4ccc(N[C@@H]5CCCC[C@@H]5O)nc34)c(C(F)F)n2)CC1)C1CCN(Cc2cccc3c2n(C)c(=O)n3C2CCC(=O)NC2=O)CC1 (stereo partly shown)", "< 0.01 µM"),
    ("Cn1c(=O)n(C2CCC(=O)NC2=O)c2cccc(CCC(=O)C3CC4(CCN(C[C@H]5CC[C@H](n6cc(NC(=O)c7cnn8ccc(N9C[C@H]%10C[C@@H]9CO%10)nc78)c(C(F)F)n6)CC5)CC4)C3)c21 (stereo partly shown)", "< 0.01 µM"),
    ("O=C1CCC(N2C(=O)c3cccc(NCCOC4CCN(C[C@H]5CC[C@H](n6cc(NC(=O)c7cnn8ccc(N9CCOCC9)nc78)c(C(F)F)n6)CC5)CC4)c3C2=O)C(=O)N1 (stereo partly shown)", "0.01 to 0.1 µM"),
]

API: the following record is the query input.
The value of DC50 recorded for Cn1c(=O)n(C2CCC(=O)NC2=O)c2ccc(CN3CCC(CN4CCC(n5cc(NC(=O)c6coc(-c7ccnc(NCC8CC8)c7)n6)c(C(F)F)n5)CC4)CC3)cc21 (stereo not shown) when tested on IRAK4 (Homo sapiens (Human), UniProt Q9NWZ3) reads 0.1 to 1 µM

---

The compounds listed here are annotated with their DC50.
molecular target: IRAK4 (Homo sapiens (Human)); experiment: IRAK4 MSD degradation in OCI-LY10; type: cell-based; conditions: OCI-LY10, 24 hrs, MSD; read-out: IRAK4 MSD degradation in OCI-LY10 at 24 hrs: Average external-Abs DC50

Here's what some known entries look like.
# Compound, Result
data = [
    ("O=C1CCC(N2C(=O)c3cccc(NCc4ccc(CN5CCN(C[C@H]6CC[C@H](n7cc(NC(=O)c8cnn9ccc(N%10CCOCC%10)nc89)c(C(F)F)n7)CC6)CC5)cc4)c3C2=O)C(=O)N1 (some centres unmarked) [I-356]", "10 to 100 nM"),
    ("O=C1CCC(N2Cc3c(NCC4CCN(C[C@H]5CC[C@H](C6N=C(NC(=O)c7cnn8ccc(N9C[C@H]%10C[C@@H]9CO%10)nc78)C(C(F)F)=N6)CC5)CC4)cccc3C2=O)C(=O)N1 (some centres unmarked) [I-380]", "10 to 100 nM"),
    ("Cc1nc2cccc(NCCCOC3CCN(C[C@H]4CC[C@H](n5cc(NC(=O)c6cnn7ccc(N8CCOCC8)nc67)c(C(F)F)n5)CC4)CC3)c2c(=O)n1C1CCC(=O)NC1=O (some centres unmarked) [I-211]", "> 1000 nM"),
    ("Cn1c(=O)n(C2CCC(=O)NC2=O)c2cccc(CCCOCCOCCOCCOCC(=O)N3CCN([C@H]4CC[C@H](Nc5ncnn6ccc(C7CCOCC7)c56)CC4)CC3)c21 (some centres unmarked) [I-19]", "> 1000 nM"),
    ("CN(CCC#CCN)C[C@H]1CC[C@H](n2cc(NC(=O)c3cnn4ccc(N5CCOCC5)nc34)c(C(F)F)n2)CC1 [I-412]", "> 1000 nM"),
]

# DC50 (compound: Cc1c[nH]c2ncnc(N[C@H]3CC[C@H](N4CCN(C(=O)COCCOCCOCCOCCCc5ccc6c(c5)n(C)c(=O)n6C5CCC(=O)NC5=O)CC4)CC3)c12 (some centres unmarked) [I-26] ) is > 1000 nM

# DC50 (compound: CC[C@@H]1[C@H](F)C(=O)N[C@@H]1COc1ncc(C#C[C@H]2CC[C@H](CN3CCC(OCCCc4cccc5c4n(C)c(=O)n5C4CCC(=O)NC4=O)CC3)CC2)c2cc(C(N)=O)c(OC)cc12 (some centres unmarked) [I-186] ) is < 10 nM

# DC50 (compound: O=C1CCC(N2C(=O)c3cccc(NCCOC[C@H]4CC[C@H](n5cc(NC(=O)c6cnn7ccc(N8C[C@H]9C[C@@H]8CO9)nc67)c(C(F)F)n5)CC4)c3C2=O)C(=O)N1 (some centres unmarked) [I-369] ) is > 1000 nM

---

tested on: OCI-LY10; experiment: CTG Cell Viability Assay - OCI-LY10; assay type: cell-based, human; conditions: Homo sapiens, OCI-Ly10, 96 h, OCI-LY10, 4 days; read-out: CTG Cell Viability Assay - OCI-LY10: Average external-IC50
pIC50: −log10 of the molar value.
Quantity Kind: pIC50

Here's what some known entries look like.
# Molecule, pIC50
rows = [
    ("O=C1CCC(N2C(=O)c3cccc(NCCCOC4CCN(C[C@H]5CC[C@H](n6cc(NC(=O)c7cnn8ccc(N9C%10COCC9C%10)nc78)c(C(F)F)n6)CC5)CC4)c3C2=O)C(=O)N1 (stereo partly shown) [I-345]", "> 7.30"),
    ("Cn1c(=O)n(C2CCC(=O)NC2=O)c2cccc(CCCOCCOCCNC(=O)[C@H]3CC[C@@H](n4cc(NC(=O)c5coc(-c6ccnc(NCC7CC7)c6)n5)c(C(F)F)n4)CC3)c21 (stereo partly shown) [I-15]", "< 6.00"),
    ("NC(=O)c1nn([C@H]2CC[C@H](CNCCCOCCCc3cccc4c3oc(=O)n4C3CCC(=O)NC3=O)CC2)cc1NC(=O)c1coc(-c2ccnc(NCC(F)(F)F)c2)n1 (stereo partly shown) [I-12]", "6.00 to 6.30"),
]

# pIC50 (molecule: NCC#Cc1ccc(-n2cc(NC(=O)c3coc(-c4ccnc(NCC5CC5)c4)n3)c(C(F)F)n2)cc1 [I-391] ) is < 6.00

---

system: OCI-LY10; experiment: CTG Cell Viability Assay - OCI-LY10; assay type: cell-based, human; conditions: Homo sapiens, OCI-Ly10, 96 h, OCI-LY10, 4 days; read-out: CTG Cell Viability Assay - OCI-LY10: Average external-IC50
pIC50: −log10 of the molar value.
The molecules listed here are annotated with their pIC50.

# Molecule, Result
records = [
    ("CN(C[C@H]1CC[C@H](C2N=C(NC(=O)c3cnn4ccc(N5C[C@H]6C[C@@H]5CO6)nc34)C(C(F)F)=N2)CC1)C1CCC2(CC1)CC(Cc1cccc3c1n(C)c(=O)n3C1CCC(=O)NC1=O)C2 (stereo partly shown)", "< 6.00"),
    ("O=C1CCC(N2C(=O)c3cccc(NCc4ccc(CN5CCN(C[C@H]6CC[C@H](n7cc(NC(=O)c8cnn9ccc(N%10CCOCC%10)nc89)c(C(F)F)n7)CC6)CC5)cc4)c3C2=O)C(=O)N1 (stereo partly shown)", "> 7.30"),
    ("O=C1CCC(N2C(=O)c3cccc(NCCOC4CCN(C[C@H]5CC[C@H](n6cc(NC(=O)c7cnn8ccc(N9C[C@H]%10C[C@@H]9CO%10)nc78)c(C(F)F)n6)CC5)CC4)c3C2=O)C(=O)N1 (stereo partly shown)", "7.00 to 7.30"),
]

The value of pIC50 recorded for Cn1c(=O)n(C2CCC(=O)NC2=O)c2cccc(CN3CCC(N(C)[C@H]4CC[C@H](Oc5ncnc6ccc(C#N)cc56)CC4)CC3)c21 (stereo partly shown) when tested on OCI-LY10 reads < 6.00

The value of pIC50 recorded for Cn1c(=O)n(C2CCC(=O)NC2=O)c2cccc(CCCOCCOCCOCCOCC(=O)N3CCN([C@H]4CC[C@H](Nc5ncnc6[nH]cc(C7CCOCC7)c56)CC4)CC3)c21 (stereo partly shown) when tested on OCI-LY10 reads < 6.00

The value of pIC50 recorded for CN(CC[C@H]1CN(CCCc2cccc3c2n(C)c(=O)n3C2CCC(=O)NC2=O)CCO1)C[C@H]1CC[C@H](n2cc(NC(=O)c3coc(-c4ccnc(NCC5CC5)c4)n3)c(C(F)F)n2)CC1 (stereo partly shown) when tested on OCI-LY10 reads < 6.00

The value of pIC50 recorded for Cc1c[nH]c2ncnc(N[C@H]3CC[C@H](N4CCN(C(=O)COCCOCCOCCOCCCc5cccc6c5n(C)c(=O)n6C5CCC(=O)NC5=O)CC4)CC3)c12 (stereo partly shown) when tested on OCI-LY10 reads < 6.00
